- target: FLT3 (Homo sapiens)
- Sequence (P36888 27-993): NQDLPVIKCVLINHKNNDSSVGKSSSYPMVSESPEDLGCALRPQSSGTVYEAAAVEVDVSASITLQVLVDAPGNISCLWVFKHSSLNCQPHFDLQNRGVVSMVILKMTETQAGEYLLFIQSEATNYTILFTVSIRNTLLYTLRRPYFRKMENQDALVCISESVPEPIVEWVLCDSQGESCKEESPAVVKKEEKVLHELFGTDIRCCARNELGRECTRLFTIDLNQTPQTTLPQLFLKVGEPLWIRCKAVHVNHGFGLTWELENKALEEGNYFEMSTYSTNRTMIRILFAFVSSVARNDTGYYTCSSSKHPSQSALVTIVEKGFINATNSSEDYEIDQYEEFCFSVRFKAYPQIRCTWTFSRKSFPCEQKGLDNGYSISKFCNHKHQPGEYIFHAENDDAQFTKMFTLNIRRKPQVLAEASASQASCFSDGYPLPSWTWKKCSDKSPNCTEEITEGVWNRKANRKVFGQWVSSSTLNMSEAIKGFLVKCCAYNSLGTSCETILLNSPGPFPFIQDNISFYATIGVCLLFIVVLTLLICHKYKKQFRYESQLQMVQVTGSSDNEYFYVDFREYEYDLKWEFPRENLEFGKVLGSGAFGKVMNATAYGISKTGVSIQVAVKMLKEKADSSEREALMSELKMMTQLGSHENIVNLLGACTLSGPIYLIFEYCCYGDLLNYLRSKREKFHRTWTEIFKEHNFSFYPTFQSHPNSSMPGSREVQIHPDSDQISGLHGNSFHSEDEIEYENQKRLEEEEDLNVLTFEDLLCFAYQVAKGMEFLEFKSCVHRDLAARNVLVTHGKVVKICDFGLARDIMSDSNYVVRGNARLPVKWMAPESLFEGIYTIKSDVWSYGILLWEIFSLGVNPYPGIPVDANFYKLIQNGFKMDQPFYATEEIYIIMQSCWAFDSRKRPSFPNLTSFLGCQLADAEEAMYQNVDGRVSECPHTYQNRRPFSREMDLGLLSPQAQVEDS
reportedEndpoint: IC50

1) [2H]C([2H])([2H])n1c(=O)n([C@@H]2CC[C@@H](NC(=O)OC)C2)c2c3c(-c4ccc5c(c4)COC5(C)C)c(-c4cn(CC(F)F)nc4F)[nH]c3ncc21; > 2500 nM
2) [2H]C([2H])([2H])n1ncc2cc(-c3c(-c4cn(C([2H])(C([2H])([2H])[2H])C([2H])([2H])[2H])nc4F)[nH]c4ncc5c(c34)n([C@@H]3CC[C@@H](NC(=O)OC)C3)c(=O)n5C([2H])([2H])[2H])ccc21; 1250 to 2500 nM
3) [2H]C([2H])([2H])n1cc(-c2[nH]c3ncc4c(c3c2-c2ccc3c(cnn3C(C)C)c2)n([C@@H]2CC[C@@H](NC(=O)OC)C2)c(=O)n4C)c(F)n1; 1250 to 2500 nM

###

Measured IC50 (TRKA (Homo sapiens, UniProt P04629))
reportedEndpoint: IC50

1. [2H]C([2H])([2H])n1c(=O)n([C@@H]2CC[C@@H](NC(=O)OC)C2)c2c3c(-c4ccc5c(c4)COC5(C)C)c(-c4cn(CC)nc4F)[nH]c3ncc21; > 2.5 µM
2. [2H]C([2H])([2H])n1c(=O)n([C@@H]2CC[C@@H](NC(=O)OC)C2)c2c3c(-c4ccc5c(c4)COC5(C)C)c(-c4cn(C([2H])([2H])C([2H])([2H])[2H])nc4F)[nH]c3ncc21; > 2.5 µM
3. COC(=O)N[C@@H]1CC[C@@H](n2c(=O)n(C)c3cnc4[nH]c(-c5cn(C)nc5OC)c(-c5ccc(F)cc5)c4c32)C1; 1.25 to 2.5 µM
